TARGET ENTITY: P450 2D6 (Homo sapiens (Human), UniProt P10635)
Sequence (P10635 whole entry): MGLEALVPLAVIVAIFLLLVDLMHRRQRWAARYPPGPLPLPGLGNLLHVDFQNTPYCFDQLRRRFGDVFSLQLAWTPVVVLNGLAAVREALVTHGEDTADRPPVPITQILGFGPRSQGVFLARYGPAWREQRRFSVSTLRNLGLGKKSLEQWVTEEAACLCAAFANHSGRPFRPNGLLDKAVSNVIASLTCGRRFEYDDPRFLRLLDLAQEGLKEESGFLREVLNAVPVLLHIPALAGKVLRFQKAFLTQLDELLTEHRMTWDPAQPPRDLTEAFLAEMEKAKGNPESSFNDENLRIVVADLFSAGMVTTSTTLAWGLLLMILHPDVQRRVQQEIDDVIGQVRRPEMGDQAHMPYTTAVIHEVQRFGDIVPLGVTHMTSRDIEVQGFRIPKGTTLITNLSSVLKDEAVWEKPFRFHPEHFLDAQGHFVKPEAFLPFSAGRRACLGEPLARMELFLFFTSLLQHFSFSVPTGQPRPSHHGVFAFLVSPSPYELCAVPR
PROCEDURE TEXT: Cytochrome P450 isoenzyme inhibition assay, demethylation of Dextromethorphan
Format: in vitro ADME
SETTINGS: (S)-isomers; human liver microsomes, 37° C.
pIC50: −log10 of the molar value.
READOUT LABEL: pIC50

Ask | Respond only with pIC50 recorded for CN[C@@H](C)C(=O)Nc1ccc(-c2c(-c3ccnc(C)c3)nc3cc(C)ccn23)c(C#Cc2ccc3c(C)nccc3c2)n1 [(S)-2]
Reply | < 4.30

###

Here, each record is paired with measured pIC50 data.
TARGET ENTITY: P450 2C8 (Homo sapiens (Human), UniProt P10632)
Sequence (P10632 whole entry): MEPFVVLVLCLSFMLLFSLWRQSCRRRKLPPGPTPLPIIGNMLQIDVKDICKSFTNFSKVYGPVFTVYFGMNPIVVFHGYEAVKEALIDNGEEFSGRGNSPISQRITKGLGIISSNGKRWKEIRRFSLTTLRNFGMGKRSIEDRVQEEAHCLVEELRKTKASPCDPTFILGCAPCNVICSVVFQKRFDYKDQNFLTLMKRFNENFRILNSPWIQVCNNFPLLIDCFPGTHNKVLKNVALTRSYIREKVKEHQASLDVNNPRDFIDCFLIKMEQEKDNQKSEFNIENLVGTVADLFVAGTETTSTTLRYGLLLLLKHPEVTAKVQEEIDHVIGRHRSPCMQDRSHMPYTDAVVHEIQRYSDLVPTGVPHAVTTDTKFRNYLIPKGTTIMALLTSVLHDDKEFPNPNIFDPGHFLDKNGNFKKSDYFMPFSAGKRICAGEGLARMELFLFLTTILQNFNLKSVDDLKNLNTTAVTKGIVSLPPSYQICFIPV
PROCEDURE TEXT: Cytochrome P450 isoenzyme inhibition assay, deethylation of Amodiaquine
Assay type: in vitro ADME
SETTINGS: (S)-isomers; human liver microsomes, 37° C.
Value format note: pIC50 is -log10 of concentration (mol/L); just state the number.

As a guide, the following entries are already answered.
COMPOUND: CN[C@@H](C)C(=O)Nc1ccc(-c2c(-c3cccnc3OC)nc3cc(C)ccn23)c(C#Cc2ccc3c(ccc(=O)n3C)c2)n1 [(S)-10]
TARGET ENTITY: P450 2C8 (Homo sapiens (Human), UniProt P10632)
pIC50: 5.03
//
COMPOUND: CN[C@@H](C)C(=O)Nc1ccc(-c2c(-c3ccnc(C)c3)nc3cc(C)ccn23)c(C#Cc2ccc3c(C)nccc3c2)n1 [(S)-2]
TARGET ENTITY: P450 2C8 (Homo sapiens (Human), UniProt P10632)
pIC50: 6.05
//
COMPOUND: CN[C@@H](C)C(=O)Nc1ccc(-c2c(-c3cccnc3OC)nc3cc(Cl)ccn23)c(C#Cc2ccc3c(C)nccc3c2)n1 [(S)-15]
TARGET ENTITY: P450 2C8 (Homo sapiens (Human), UniProt P10632)
pIC50: 5.66

Ask | Respond only with pIC50 recorded for CN[C@@H](C)C(=O)Nc1ccc(-c2c(-c3cccnc3OC)nc3ccccn23)c(C#Cc2ccc3c(C)nccc3c2)n1 [(S)-16]
Reply | 5.47

Ask | Respond only with pIC50 recorded for CN[C@@H](C)C(=O)Nc1ccc(-c2c(-c3ccnc(OC)c3)nc3cc(C)ccn23)c(C#Cc2ccc3c(C)nccc3c2)n1 [(S)-8]
Reply | 5.80

Ask | Respond only with pIC50 recorded for CN[C@@H](C)C(=O)Nc1ccc(-c2c(-c3cncn3C)nc3cc(C)ccn23)c(C#Cc2ccc3c(C)nccc3c2)n1 [(S)-4]
Reply | 5.01
